Recorded values, source PubChem BioAssay (NCATS).

# ASSAY_NAME: Cellular viability qHTS for adrenocortical cancer (ACC) cell line SW-13 (AID 1963989);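 note: cells grown in serum-free medium with ITS supplement; % is set by controls: 0 for no effect and ±100 for the full control effect; nearly all actives have a fitted effect of over 65% in size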
# CONDITION_INFO: SW-13 ACC cells viability, CellTiter-Glo, 48 h; hits give low values
Inconclusive results are not listed.

- MOLECULE: "OC[C@@H](O)[C@@H](O[C@@H]1O[C@H](CO)[C@H](O)[C@H](O)[C@H]1O)[C@H](O)[C@@H](O)CO"
  activity (max response) (%): 1.27
- MOLECULE: "O=C(O)C1=CC(O)C(O)[C@H](O)C1 (stereo not given in full)"
  activity (max response) (%): -8.83
- MOLECULE: "CCCCNc1ncc(-c2ccc(CN3CCOCC3)cn2)c(NC2CCC(O)CC2)n1 (stereo not given)"
  activity (max response) (%): -11.9
- MOLECULE: "Cc1cccn2c(=O)c(-c3nnn[nH]3)cnc12"
  activity (max response) (%): -1.53
- MOLECULE: "[2H]C([2H])([2H])C(O)([C@@H](C)/C=C/[C@@H](C)[C@H]1CC[C@H]2/C(=C/C=C3C[C@@H](O)C[C@H](O)C3)CCC[C@]12C)C([2H])([2H])[2H]"
  activity (max response) (%): -26.6
- MOLECULE: "N#Cc1cc(NC(=O)Nc2nnc(-c3ccncc3)s2)ccc1-c1cn[nH]c1"
  activity (max response) (%): 13.8
- MOLECULE: "O=C(Cn1ccnc1[N+](=O)[O-])NCc1ccccc1"
  activity (max response) (%): -1.05
- MOLECULE: "O=c1c(O)c(-c2ccc(O)cc2O)oc2cc(O)cc(O)c12"
  activity (max response) (%): 14.7
- MOLECULE: "O=C(O)C(O)Cc1ccc(O)c(O)c1 (stereo not given)"
  activity (max response) (%): -1.27
- MOLECULE: "CCn1cc(C(=O)O)c(=O)c2cnc(N3CCCC3)nc21"
  activity (max response) (%): -7.72

* * *

# ASSAY_NAME: Cellular viability qHTS for adrenocortical cancer (ACC) cell line SW-13 (AID 1963989);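 note: cells grown in serum-free medium with ITS supplement; % is set by controls: 0 for no effect and ±100 for the full control effect; nearly all actives have a fitted effect of over 65% in size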
# CONDITION_INFO: SW-13 ACC cells viability, CellTiter-Glo, 48 h; hits give low values
Inconclusive results are not listed.
# activity (max response) listing for each entry below
MEASURED_PARAMETER: activity (max response) (%)

- COMPOUND: "COc1ccc2c(c1)CCCC2=O"
  MEASURED_PARAMETER: "activity (max response)"
  MEASURED_NUMBER: 14.4
- COMPOUND: "CCCC(=O)OCOC(=O)C1=C(C)NC(C)=C(C(=O)OC)C1c1cccc(Cl)c1Cl (stereo unspecified)"
  MEASURED_PARAMETER: "activity (max response)"
  MEASURED_NUMBER: 6.2
- COMPOUND: "COc1cc2c(Nc3ccc(NC(=O)c4ccccc4)cc3)ncnc2cc1OCCCN1CCOCC1"
  MEASURED_PARAMETER: "activity (max response)"
  MEASURED_NUMBER: -24.4
- COMPOUND: "Nc1ncnc2c1ncn2[C@@H]1O[C@H](CO)[C@@H](O)[C@@H]1O"
  MEASURED_PARAMETER: "activity (max response)"
  MEASURED_NUMBER: -11.9
- COMPOUND: "Cc1cc(C)c(NC(=O)CN(CC(=O)O)CC(=O)O)c(C)c1Br"
  MEASURED_PARAMETER: "activity (max response)"
  MEASURED_NUMBER: 9.39
- COMPOUND: "c1cc(CN2CCCNCCNCCCNCC2)ccc1CN1CCCNCCNCCCNCC1"
  MEASURED_PARAMETER: "activity (max response)"
  MEASURED_NUMBER: -19.4
- COMPOUND: "O=C1c2c(O)cccc2Cc2cccc(O)c21"
  MEASURED_PARAMETER: "activity (max response)"
  MEASURED_NUMBER: 5.31
- COMPOUND: "O=C(O)Cc1ccc(OCCNC[C@H](O)c2ccccc2)cc1"
  MEASURED_PARAMETER: "activity (max response)"
  MEASURED_NUMBER: 0.46
- COMPOUND: "CCC(=O)NS(=O)(=O)c1ccc(-c2c(-c3ccccc3)noc2C)cc1"
  MEASURED_PARAMETER: "activity (max response)"
  MEASURED_NUMBER: -1.9
- COMPOUND: "OC[C@H]1O[C@@H](S[C@@H]2O[C@H](CO)[C@H](O)[C@H](n3cc(-c4cccc(F)c4)nn3)[C@H]2O)[C@H](O)[C@@H](n2cc(-c3cccc(F)c3)nn2)[C@H]1O"
  MEASURED_PARAMETER: "activity (max response)"
  MEASURED_NUMBER: 11.8
- COMPOUND: "N#C/C(=C1\\SCC(c2ccccc2Cl)S1)n1ccnc1 (stereo unspecified)"
  MEASURED_PARAMETER: "activity (max response)"
  MEASURED_NUMBER: -13.5
- COMPOUND: "CCCC[C@@H](C=O)NC(=O)[C@H](CC(C)C)NC(=O)OCc1ccccc1"
  MEASURED_PARAMETER: "activity (max response)"
  MEASURED_NUMBER: -4.14
- COMPOUND: "O=c1[nH]c(=O)n([C@H]2C[C@H](O)[C@@H](CO)O2)cc1Br"
  MEASURED_PARAMETER: "activity (max response)"
  MEASURED_NUMBER: -6.63
- COMPOUND: "CN1C[C@H]2c3ccccc3Oc3ccc(Cl)cc3[C@@H]2C1"
  MEASURED_PARAMETER: "activity (max response)"
  MEASURED_NUMBER: -18.3
- COMPOUND: "OCCN1CCN(CCCN2c3ccccc3Sc3ccc(C(F)(F)F)cc32)CC1"
  MEASURED_PARAMETER: "activity (max response)"
  MEASURED_NUMBER: 8.75
- COMPOUND: "CCOc1nc2cccc(C(=O)O)c2n1Cc1ccc(-c2ccccc2-c2nn[nH]n2)cc1"
  MEASURED_PARAMETER: "activity (max response)"
  MEASURED_NUMBER: 10.5
- COMPOUND: "CCC[C@@H]1C[C@@H](C(=O)N[C@@H]([C@H]2O[C@H](SC)[C@H](O)[C@@H](O)[C@H]2O)[C@H](C)Cl)N(C)C1"
  MEASURED_PARAMETER: "activity (max response)"
  MEASURED_NUMBER: 5.6
- COMPOUND: "O=C(O)Cc1ccc(CCNS(=O)(=O)c2ccc(Cl)cc2)cc1"
  MEASURED_PARAMETER: "activity (max response)"
  MEASURED_NUMBER: -0.672
- COMPOUND: "O=C(O)CNC(=O)c1ncc(-c2cccc(Cl)c2)cc1O"
  MEASURED_PARAMETER: "activity (max response)"
  MEASURED_NUMBER: 5.73
- COMPOUND: "C[N+](C)(C)CC(O)CC(=O)[O-] (stereo unspecified)"
  MEASURED_PARAMETER: "activity (max response)"
  MEASURED_NUMBER: -6.62
- COMPOUND: "CC(=O)Nc1cccc(O)c1"
  MEASURED_PARAMETER: "activity (max response)"
  MEASURED_NUMBER: -1.77

* * *

# ASSAY_NAME: Cellular viability qHTS for adrenocortical cancer (ACC) cell line SW-13 (AID 1963989);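 note: cells grown in serum-free medium with ITS supplement; % is set by controls: 0 for no effect and ±100 for the full control effect; nearly all actives have a fitted effect of over 65% in size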
# CONDITION_INFO: SW-13 ACC cells viability, CellTiter-Glo, 48 h; hits give low values
Records with an inconclusive call do not appear.

- COMPOUND: "Clc1ccc2c(c1)C(N1CCNCC1)=Nc1ccccc1O2"
  activity (max response), %: -1.69
- COMPOUND: "O=C1NC(=O)[C@@]2(CCOc3ccc(F)cc32)N1"
  activity (max response), %: 3.16
- COMPOUND: "OC[C@@H](O)[C@@H](O)[C@H](O)[C@@H](O)CO"
  activity (max response), %: 3.97
- COMPOUND: "Cc1[nH]c(C)c(Cl)c(=O)c1Cl"
  activity (max response), %: 4.22
- COMPOUND: "CCC(C(=O)O)c1ccc(N2Cc3ccccc3C2=O)cc1 (stereo not drawn)"
  activity (max response), %: 5.42
- COMPOUND: "CC(C)C[C@@H](N)[C@H](O)C(=O)N[C@H](C(=O)N[C@H](C(=O)N[C@@H](CC(=O)O)C(=O)O)C(C)C)C(C)C"
  activity (max response), %: -8.42
- COMPOUND: "Cc1ccc(/C(=C\\CN2CCCC2)c2ccccn2)cc1"
  activity (max response), %: 2.73
- COMPOUND: "NCCNCCNCCN"
  activity (max response), %: 13.6
- COMPOUND: "O=C(OCC1(COC(=O)c2cccnc2)CCCC(COC(=O)c2cccnc2)(COC(=O)c2cccnc2)C1O)c1cccnc1"
  activity (max response), %: 7.27
- COMPOUND: "CS(=O)(=O)c1ccc(-c2cnc(NCc3ccco3)n3cnnc23)cc1"
  activity (max response), %: -12
- COMPOUND: "CCN(CC)CCOCCOC(=O)C1(c2ccccc2)CCCC1"
  activity (max response), %: -3.2
- COMPOUND: "O=C(CCCCC(=O)Nc1c(I)cc(I)c(C(=O)O)c1I)Nc1c(I)cc(I)c(C(=O)O)c1I"
  activity (max response), %: 10.3
- COMPOUND: "Cc1c[nH]c2ncnc(N3CCC(CN)(C(=O)Nc4cccc(OC(=O)N(C)C)c4)CC3)c12"
  activity (max response), %: -9.88
- COMPOUND: "CC(=O)N[C@@H](CC(C)C)C(=O)O"
  activity (max response), %: 7.87
- COMPOUND: "O=C(O)c1ccccc1Nc1cc(Cl)ccc1C(=O)O"
  activity (max response), %: -18.2
- COMPOUND: "CC(O)CN(CCN(CC(C)O)CC(C)O)CC(C)O (stereo not drawn)"
  activity (max response), %: 5.94
- COMPOUND: "Oc1ccc(OCc2ccccc2)cc1"
  activity (max response), %: 12.2
- COMPOUND: "CN(C(Cc1ccc(OS(=O)(=O)c2cccc3cnccc23)cc1)C(=O)N1CCN(c2ccccc2)CC1)S(=O)(=O)c1cccc2cnccc12 (stereo not drawn)"
  activity (max response), %: 5.6
- COMPOUND: "CNC(=O)[C@H](Cc1c[nH]c2ccccc12)NC(=O)[C@@H](CC(=O)NO)CC(C)C"
  activity (max response), %: -15.7
- COMPOUND: "NS(=O)(=O)c1cc2c(cc1Cl)CN(C1CCCCC1)C2=O"
  activity (max response), %: 0.796
- COMPOUND: "CC(=O)Oc1ccc(C(c2ccc(OC(C)=O)cc2)c2ccccn2)cc1"
  activity (max response), %: -17.9
- COMPOUND: "FC1(F)C(F)(F)C(F)(F)C2(F)C(F)(F)C(F)(F)C(F)(F)C(F)(F)C2(F)C1(F)F (stereo not drawn)"
  activity (max response), %: 5.48
- COMPOUND: "COc1cc(C)c(Cc2cnc(N)nc2N)cc1OC"
  activity (max response), %: -2.95
